A collection of compounds and their measured Propionic acid, production of SCFA (%) after 24 h fermentation
Tested on: human fecal samples
Test: 24 h batch fermentation with human fecal samples: production of SCFA
Assay type: cell-based
Settings: 1% of each substance, 37° C., pH 6.9, anaerobic
Output spec: scalar in %, unitless text.

# example entries with known answers
OC[C@@H](O)[C@@H](O[C@@H]1O[C@H](CO)[C@H](O)[C@H](O)[C@H]1O)[C@H](O)[C@@H](O)CO = 9.3
OC[C@@H](O)[C@@H](O[C@H]1O[C@H](CO)[C@@H](O)[C@H](O)[C@H]1O)[C@H](O)[C@@H](O)CO = 12.1
OC[C@@H](O)[C@H](O)[C@@H](O)CO = 12.6

Looking up "OC[C@@H](O)[C@@H](O)[C@H](O)[C@@H](O)CO" , I found its Propionic acid, production of SCFA (%) after 24 h fermentation recorded as 11.4

Source: patent US20030157146A1
